Record: IC50 reported on MDM2 (Homo sapiens).
Answers are plain numbers, in nM.

COc1cc(N)ccc1-c1nc2c(n1C(C)C)[C@]1(C(=O)Nc3cc(Cl)ccc31)N(c1cc(Cl)ccc1C)C2=O = 71.4

Please report IC50 for every entry that follows.
1. COc1cc(OCCF)ncc1-c1nc2c(n1C(C)C)[C@]1(C(=O)Nc3cc(Cl)ccc31)N(c1cccc(Cl)c1)C2=O
2. COc1ncc(-c2nc3c(n2C(C)C)[C@]2(C(=O)Nc4cc(Cl)ccc42)N(c2cc(Cl)ccc2OC)C3=O)c(OC)n1

[109, 49.4]

// for each compound in input: emit IC50
1. COc1ccc(-c2nc3c(n2C(C)C)[C@]2(C(=O)Nc4cc(Cl)ccc42)N(c2cc(Cl)cn(C)c2=O)C3=O)c(OC)c1
2. COc1cc(N(C)C)ccc1-c1nc2c(n1C(C)C)[C@]1(C(=O)Nc3cc(Cl)ccc31)N(c1cccc(Cl)c1)C2=O

1: 1850; 2: 146

Please report IC50 for every entry that follows.
1. CCOc1cc(OC)c(-c2nc3c(n2C(C)C)[C@@]2(C(=O)Nc4cc(Cl)ccc42)N(c2cc(Cl)ccc2F)C3=O)cn1
2. COc1cc(C2CC2)ccc1-c1nc2c(n1C(C)C)[C@@]1(C(=O)Nc3cc(Cl)ccc31)N(c1cc(Cl)cnc1C)C2=O
3. CCOc1cc(OC)c(-c2nc3c(n2C(C)C)[C@@]2(C(=O)Nc4cc(Cl)ccc42)N(c2cc(F)cc(Cl)c2)C3=O)cn1
4. COc1nc(OC(C)C)ncc1-c1nc2c(n1C(C)C)[C@@]1(C(=O)Nc3cc(Cl)ccc31)N(c1cc(Cl)cnc1C)C2=O
5. COc1cc(OC(F)(F)F)ccc1-c1nc2c(n1C(C)C)[C@]1(C(=O)Nc3cc(Cl)ccc31)N(c1cccc(Cl)c1)C2=O
6. COc1cccc(F)c1-c1nc2c(n1C(C)C)[C@@]1(C(=O)Nc3cc(Cl)ccc31)N(c1cc(Cl)ccc1C)C2=O
7. COc1ncc(-c2nc3c(n2C(C)C)[C@@]2(C(=O)Nc4cc(Cl)ccc42)N(c2cccc(C)c2)C3=O)c(OC)n1
8. COc1nc(C2CC2)ncc1-c1nc2c(n1C(C)C)[C@]1(C(=O)Nc3cc(Cl)ccc31)N(c1cc(F)cc(Cl)c1)C2=O

1.27
2.05
1.36
2.35
4780
3.04
4.25
515

----------
# measurementNotes: Pharmacokinetics in ICR mice after intravenous and intragastric administration
# Assay type: in vivo
# assayConditions: male, ICR, mouse, plasma, po, 5 mg/kg, PO 5 mg/kg, ICR mice, Mean; read-out: AUC(0-t)
quantityMeasured: AUC(0-t)
Kindly write the number and append the unit.

COc1ncc(-c2nc3c(n2C(C)C)[C@@]2(C(=O)Nc4cc(Cl)ccc42)N(c2cccc(Cl)c2)C3=O)c(OC)n1 = 1340 ng·h/mL

Give measured AUC(0-t) for every item shown.
1. COc1cc(OC)c(-c2nc3c(n2C(C)C)[C@@]2(C(=O)Nc4cc(Cl)ccc42)N(c2cc(Cl)ccc2C)C3=O)cn1
2. COc1ncc(-c2nc3c(n2C(C)C)[C@H](c2ccc(Cl)cc2)N(c2cc(Cl)cn(C)c2=O)C3=O)c(OC)n1 [HDM201, reference compound]

1. 9370 ng·h/mL
2. 1130 ng·h/mL

----------
# testedTarget: MDM2 (Homo sapiens, UniProt Q00987)
# Sequence (Q00987 whole entry): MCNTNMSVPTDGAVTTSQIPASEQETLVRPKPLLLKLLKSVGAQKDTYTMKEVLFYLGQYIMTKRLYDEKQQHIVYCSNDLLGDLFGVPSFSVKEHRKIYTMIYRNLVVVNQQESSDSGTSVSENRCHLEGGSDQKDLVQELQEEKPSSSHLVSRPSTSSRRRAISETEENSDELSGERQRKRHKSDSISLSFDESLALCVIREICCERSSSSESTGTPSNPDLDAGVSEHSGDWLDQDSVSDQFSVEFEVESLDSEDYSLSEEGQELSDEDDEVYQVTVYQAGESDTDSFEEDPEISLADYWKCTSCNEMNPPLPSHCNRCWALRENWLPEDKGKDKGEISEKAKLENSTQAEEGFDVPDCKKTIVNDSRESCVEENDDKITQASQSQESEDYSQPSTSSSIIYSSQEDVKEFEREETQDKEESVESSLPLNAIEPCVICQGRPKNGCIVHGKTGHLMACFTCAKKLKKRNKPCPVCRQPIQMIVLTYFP
pIC50: −log10 of the molar value.
The threshold is inclusive: pIC50 of exactly 7 counts as yes; values below receive no.

COc1cc(C(F)(F)F)ncc1-c1nc2c(n1C(C)C)[C@@]1(C(=O)Nc3cc(Cl)ccc31)N(c1cc(Cl)ccc1C)C2=O [Example S-138] = yes
COc1cc(N)c(C)cc1-c1nc2c(n1C(C)C)[C@@]1(C(=O)Nc3cc(Cl)ccc31)N(c1cc(Cl)ccc1C)C2=O [Example S-74] = yes

Is reported pIC50 greater than or equal to 7 here: COc1ncc(-c2nc3c(n2C(C)C)[C@]2(C(=O)Nc4cc(Cl)ccc42)N(c2ccc(F)c(Cl)c2)C3=O)c(OC)n1 [Example R-3]
no

Form field: pIC50 at least 7? Entry: COc1ncc(-c2nc3c(n2C(C)C)[C@@]2(C(=O)Nc4cc(Cl)ccc42)N(c2cc(F)cc(Cl)c2)C3=O)c(OC)n1 [Example S-45]
yes

Record COc1cc(N(C)C)ccc1-c1nc2c(n1C(C)C)[C@]1(C(=O)Nc3cc(Cl)ccc31)N(c1cc(Cl)ccc1F)C2=O [Example R-81] ; criterion: pIC50 no lower than 7. Met?
yes

Tell me whether pIC50 is at least 7 here: COc1nc(OCC(F)(F)F)ncc1-c1nc2c(n1C(C)C)[C@@]1(C(=O)Nc3cc(Cl)ccc31)N(c1cc(Cl)ccc1C)C2=O [Example S-141]
yes

Has COc1cc(-c2nc3c(n2C(C)C)[C@@]2(C(=O)Nc4cc(Cl)ccc42)N(c2cc(Cl)ccc2C)C3=O)c(OC)cn1 [Example S-40] a recorded pIC50 greater than or equal to 7?
yes

pIC50 >= 7 for COc1ccc(N2C(=O)c3nc(-c4ccccc4OC)n(C(C)C)c3[C@@]23C(=O)Nc2cc(Cl)ccc23)cc1Cl [Example S-63] ?
yes

// inclusive: pIC50 at least 7? input: COc1ccc(-c2nc3c(n2C(C)C)[C@]2(C(=O)Nc4cc(Cl)ccc42)N(c2cc(Cl)ccc2F)C3=O)c(OC)c1 [Example R-80]
no

Exam item: decide whether the reported pIC50 for COc1cc(OC)c(-c2nc3c(n2C(C)C)[C@@]2(C(=O)Nc4cc(Cl)ccc42)N(c2cc(Cl)ccc2C)C3=O)cc1F [Example S-92] is at least 7.
yes

Reported pIC50 reaches at least 7 for CCOc1ncc(-c2nc3c(n2C(C)C)[C@@]2(C(=O)Nc4cc(Cl)ccc42)N(c2cccc(Cl)c2)C3=O)c(OC)n1 [Example S-123] ?
yes

Does the reported pIC50 for COc1ccc(-c2nc3c(n2C(C)C)[C@@]2(C(=O)Nc4cc(Cl)ccc42)N(c2cc(Cl)c(=O)n(C)c2)C3=O)c(OC)c1 [Example S-52] fall at or above the 7 mark?
yes

Please tell me: is the compound COc1cc(N(C)C)c(C)cc1-c1nc2c(n1C(C)C)[C@@]1(C(=O)Nc3cc(Cl)ccc31)N(c1cc(Cl)ccc1C)C2=O [Example S-91] at or over 7 in terms of pIC50?
yes

Tell me whether pIC50 is at least 7 here: COc1nc(N)ncc1-c1nc2c(n1C(C)C)[C@]1(C(=O)Nc3cc(Cl)ccc31)N(c1cc(Cl)ccc1C)C2=O [Example R-90]
no

Would you say COc1ncc(-c2nc3c(n2C(C)C)[C@]2(C(=O)Nc4cc(Cl)ccc42)N(c2cccc(Cl)c2)C3=O)c(OC)n1 [Example R-1] shows pIC50 at minimum 7?
no

Is pIC50 for COc1cc(C)ccc1-c1nc2c(n1C(C)C)[C@]1(C(=O)Nc3cc(Cl)ccc31)N(c1cc(Cl)ccc1C)C2=O [Example R-24] at or above 7?
no

Check if pIC50 >= 7 (inclusive). Item: COc1nc(OC(C)C)ncc1-c1nc2c(n1C(C)C)[C@@]1(C(=O)Nc3cc(Cl)ccc31)N(c1cc(Cl)ccc1C)C2=O [Example S-126]
yes

I'd appreciate it if you could say whether COc1cc(C2CC2)cc(OC)c1-c1nc2c(n1C(C)C)[C@]1(C(=O)Nc3cc(Cl)ccc31)N(c1cc(Cl)ccc1C)C2=O [Example R-108] has pIC50 at least equal to 7.
no

Quick check: does COc1cc(F)c(-c2nc3c(n2C(C)C)[C@]2(C(=O)Nc4cc(Cl)ccc42)N(c2cc(Cl)ccc2C)C3=O)c(OC)c1 [Example R-130] have pIC50 greater than or equal to 7?
no

Form field: pIC50 at least 7? Entry: COc1cc(OCCO)ccc1-c1nc2c(n1C(C)C)[C@@]1(C(=O)Nc3cc(Cl)ccc31)N(c1cc(Cl)ccc1C)C2=O [Example S-148]
yes

Hello, I need to know if COc1cc(C2CC2)ccc1-c1nc2c(n1C(C)C)[C@]1(C(=O)Nc3cc(Cl)ccc31)N(c1cccc(Cl)c1)C2=O [Example R-116] has measured pIC50 not below 7. Thanks!
no

Does the reported pIC50 for COc1cc(OC(F)(F)F)ccc1-c1nc2c(n1C(C)C)[C@]1(C(=O)Nc3cc(Cl)ccc31)N(c1cc(Cl)ccc1C)C2=O [Example R-87] fall at or above the 7 mark?
no

Is pIC50 for CCc1ccc(-c2nc3c(n2C(C)C)[C@@]2(C(=O)Nc4cc(Cl)ccc42)N(c2cccc(Cl)c2)C3=O)c(OC)c1 [Example S-107] at or above 7?
yes

----------
# measurementNotes: Pharmacokinetics in ICR mice after intravenous and intragastric administration
# Assay type: in vivo
# assayConditions: male, ICR, mouse, plasma, iv, 2 mg/kg, ICR mice, IV 2 mg/kg, mean of 3 animals; read-out: Cmax
quantityMeasured: Cmax (ng/mL)
One number for each entry, in ng/mL.

These solved cases illustrate the format of a correct answer.
COc1cc(OC)c(-c2nc3c(n2C(C)C)[C@@]2(C(=O)Nc4cc(Cl)ccc42)N(c2cc(Cl)ccc2F)C3=O)cn1 = 2520
COc1cc(OC(C)C)ncc1-c1nc2c(n1C(C)C)[C@@]1(C(=O)Nc3cc(Cl)ccc31)N(c1cc(Cl)ccc1C)C2=O = 5720

Please report Cmax for every entry that follows.
1. COc1ncc(-c2nc3c(n2C(C)C)[C@@]2(C(=O)Nc4cc(Cl)ccc42)N(c2cc(F)cc(Cl)c2)C3=O)c(OC)n1
2. COc1cc(C(C)C)ccc1-c1nc2c(n1C(C)C)[C@@]1(C(=O)Nc3cc(Cl)ccc31)N(c1cc(Cl)ccc1C)C2=O

1: 809; 2: 2370

For each of the compounds below, note its Cmax.
1. COc1cc(C2CC2)ncc1-c1nc2c(n1C(C)C)[C@@]1(C(=O)Nc3cc(Cl)ccc31)N(c1cc(Cl)ccc1C)C2=O
2. COc1cc(OC)c(-c2nc3c(n2C(C)C)[C@@]2(C(=O)Nc4cc(Cl)ccc42)N(c2cccc(Cl)c2)C3=O)cn1

1: 1240; 2: 3230
